Data provenance: ChEMBL document CHEMBL4304806

molecular target: Gamma-secretase; assay: Inhibition of gamma secretase in human H4 cells over expressing human APP695 harboring K595N/M596L Swedish double mutant assessed as reduction in Abeta42 production level after 24 hrs by Alphalisa assay
Here the recorded IC50 is given for each entry.
Value expressed in nM; do not type the unit.

givenSmiles	IC50 [nM]
Cc1cn(C23CC(Nc4nc5n(n4)CCCC[C@H]5c4cc(F)cc(Cl)c4)(C2)C3)cn1	14

Input: Give the reported IC50 for Cc1cn(C23CC(Nc4nc5n(n4)CCCC[C@H]5c4ccc(F)cc4)(C2)C3)cn1 (system: Gamma-secretase).
Output: 31

Input: Give the reported IC50 for Cc1cn(C23CCC(Nc4nc5n(n4)CCCC[C@@H]5c4cc(F)cc(Cl)c4)(CC2)CC3)cn1 (system: Gamma-secretase).
Output: 15

Input: Give the reported IC50 for Cc1cn(C23CC(Nc4nc5n(n4)CCCC[C@@H]5c4cc(F)cc(Cl)c4)(C2)C3)cn1 (system: Gamma-secretase).
Output: 8

Input: Give the reported IC50 for Cc1cn(C23CC(Nc4nc5n(n4)CCCC[C@@H]5c4ccc(F)c(F)c4)(C2)C3)cn1 (system: Gamma-secretase).
Output: 44

====

target: Gamma-secretase; assay: Inhibition of gamma secretase in human H4 cells over expressing human APP695 harboring K595N/M596L Swedish double mutant assessed as reduction in Abeta42 production level after 24 hrs by Alphalisa assay
Hi! Just check whether IC50 is below 20 nM. Below gives rule met, equal or above gives rule not met.

Some solved cases for reference:
givenSmiles	labelValue
Cc1cn(C23CC(Nc4nc5n(n4)CCCC[C@H]5c4ccc(Cl)cc4)(C2)C3)cn1	rule not met
Cc1cn(C23CCC(Nc4nc5n(n4)CCCC[C@H]5c4cc(F)cc(Cl)c4)(CC2)CC3)cn1	rule met
Cc1cn(C23CC(Nc4nc5n(n4)CCCC[C@H]5c4ccc(F)c(F)c4)(C2)C3)cn1	rule not met
Cc1cn(C23CC(Nc4nc5n(n4)CCCC[C@H]5c4cccc(Cl)c4)(C2)C3)cn1	rule met
Cc1cn(C23CC(Nc4nc5n(n4)CCCC[C@@H]5c4cccc(Cl)c4)(C2)C3)cn1	rule met
Cc1cn(C23CCC(Nc4nc5n(n4)CCCC[C@H]5c4ccc(F)c(F)c4)(CC2)CC3)cn1	rule not met
Cc1cn(C23CCC(Nc4nc5n(n4)CCCC[C@@H]5c4ccc(F)c(F)c4)(CC2)CC3)cn1	rule not met
Cc1cn(C23CC(Nc4nc5n(n4)CCCC[C@@H]5c4ccc(F)cc4)(C2)C3)cn1	rule not met

Read the next record carefully.
Input: Regarding Cc1cn(C23CC(Nc4nc5n(n4)CCCC[C@@H]5c4ccc(Cl)cc4)(C2)C3)cn1 , kindly confirm whether its IC50 is beneath 20 nM.
Output: rule not met
